test: Stability in human plasma; format: in vitro ADME; conditions: room temperature
assay metric: Degradation in Human Plasma at RT

1. CC[C@H]1OC(=O)[C@H](C)[C@@H](O)[C@H](C)[C@@H](O[C@@H]2O[C@H](C)C[C@H](NC)[C@H]2O)[C@](C)(O)C[C@@H](C)CN(C)[C@H](C)[C@@H](O)[C@]1(C)O :: Stable
2. CC[C@H]1OC(=O)[C@H](C)[C@@H](O)[C@H](C)[C@@H](O[C@@H]2O[C@H](C)C[C@H](N(C)C(=O)COCc3ccccc3)[C@H]2O)[C@](C)(O)C[C@@H](C)CN(C)[C@H](C)[C@@H](O)[C@]1(C)O :: Stable
3. CC[C@H]1OC(=O)[C@H](C)[C@@H](O)[C@H](C)[C@@H](O[C@@H]2O[C@H](C)C[C@H](N(C)C(=O)CCC(=O)O)[C@H]2O)[C@](C)(O)C[C@@H](C)CN(C)[C@H](C)[C@@H](O)[C@]1(C)O :: Stable

---

Test: Stability in human plasma
Type: in vitro ADME
Conditions: room temperature
Experimental: Stability in Mouse and Human Plasma The stability of the compounds in mouse and human plasma was performed using protein precipitation as sample clean-up and HPLC-MS detection. […] For each analyzed time point ([…]) a 100 μL aliquot of the plasma was removed and protein precipitation (PPT) was performed on the aliquot by adding 900 μL of (ACN:DMSO) 95:5. […] The supernatant was transferred to an HPLC vial and analyzed using HPLC-MS. […]
assay metric: Degradation in Human Plasma at RT (% per hour)

1) CC[C@H]1OC(=O)[C@H](C)[C@@H](O)[C@H](C)[C@@H](O[C@@H]2O[C@H](C)C[C@H](N(C)C)[C@H]2OC(=O)CCC(=O)O)[C@](C)(O)C[C@@H](C)CN(C)[C@H](C)[C@@H](O)[C@]1(C)O [Example 17] :: 20

---

test: Stability in mouse plasma; assay type: in vitro ADME; details: room temperature
Listed here: items and their measured Degradation in Mouse Plasma at RT.
assay metric: Degradation in Mouse Plasma at RT (% per hour)

1) CC[C@H]1OC(=O)[C@H](C)[C@@H](O)[C@H](C)[C@@H](O[C@@H]2O[C@H](C)C[C@H](N(C)C)[C@H]2OC(=O)c2ccc(-c3ccc(S(C)(=O)=O)cc3)cc2)[C@](C)(O)C[C@@H](C)CN(C)[C@H](C)[C@@H](O)[C@]1(C)O [Example 12] :: 2
2) CC[C@H]1OC(=O)[C@H](C)[C@@H](O)[C@H](C)[C@@H](O[C@@H]2O[C@H](C)C[C@H](N(C)C(=O)COCc3ccccc3)[C@H]2O)[C@](C)(O)C[C@@H](C)CN(C)[C@H](C)[C@@H](O)[C@]1(C)O [Example 26] :: 4

---

test: Solubility in 10 mM phosphate buffer (pH 7.4); format: physicochemical; conditions: pH 7.4, aqueous buffer, kinetic from dmso stock, 60 minutes at room temperature, filtered, read-out: MTS Solubility in Buffer (pH 7.4)
We use 0.3 µM as the dividing line for solubility at 60 min: on or above the line is criterion met, below is criterion not met.

1) CCc1ccc(C(=O)O[C@H]2[C@H](O[C@@H]3[C@@H](C)[C@H](O)[C@@H](C)C(=O)O[C@H](CC)[C@@](C)(O)[C@H](O)[C@@H](C)N(C)C[C@H](C)C[C@@]3(C)O)O[C@H](C)C[C@@H]2N(C)C)cc1 :: criterion met
2) CC[C@H]1OC(=O)[C@H](C)[C@@H](O)[C@H](C)[C@@H](O[C@@H]2O[C@H](C)C[C@H](N(C)C(=O)c3ccccc3)[C@H]2O)[C@](C)(O)C[C@@H](C)CN(C)[C@H](C)[C@@H](O)[C@]1(C)O :: criterion not met
3) CC[C@H]1OC(=O)[C@H](C)[C@@H](O)[C@H](C)[C@@H](O[C@@H]2O[C@H](C)C[C@H](N(C)C(=O)CCC(=O)O)[C@H]2O)[C@](C)(O)C[C@@H](C)CN(C)[C@H](C)[C@@H](O)[C@]1(C)O :: criterion met
4) CC[C@H]1OC(=O)[C@H](C)[C@@H](O)[C@H](C)[C@@H](O[C@@H]2O[C@H](C)C[C@H](N(C)C)[C@H]2OC(=O)CCC(=O)O)[C@](C)(O)C[C@@H](C)CN(C)[C@H](C)[C@@H](O)[C@]1(C)O :: criterion met
5) CC[C@H]1OC(=O)[C@H](C)[C@@H](O)[C@H](C)[C@@H](O[C@@H]2O[C@H](C)C[C@H](N(C)C)[C@H]2OC(=O)c2ccc3ccccc3c2)[C@](C)(O)C[C@@H](C)CN(C)[C@H](C)[C@@H](O)[C@]1(C)O :: criterion met
